molecular target: T1, His-tagged PD-L1 ECD protein (ACROBiosystems) (human, UniProt Q9NZQ7 19-238); assay: SPR, supernatant IgG captured, PD-L1-His analyte
T1 construct: Bought protein; also called PD-L1-His; PD-L1/His; not shown: His tag
T1 sequence (Q9NZQ7 19-238): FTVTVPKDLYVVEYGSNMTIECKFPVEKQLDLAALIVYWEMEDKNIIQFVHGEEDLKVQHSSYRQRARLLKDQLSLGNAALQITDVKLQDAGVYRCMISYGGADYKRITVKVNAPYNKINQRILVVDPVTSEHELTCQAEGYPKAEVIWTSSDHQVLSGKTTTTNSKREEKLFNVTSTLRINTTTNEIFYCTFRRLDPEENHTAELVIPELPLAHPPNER
quantity: koff (s⁻¹)
Express the result in s⁻¹ but write the number alone.

Check out these entries, answers already filled in.
binder="29A8_VH3-VL1.M1 (antibody, human IgG1, kappa, N297A, V domains shown, Humanized, hIgG1 effector-less Fc, kappa; see recheck on K24R in the .M1 light chain) VH: EVQLQESGPGLVKPSETLSLTCTVSGYSITSDFAWDWIRQFPGKGLEWMGHIRFSGTTSYNPSLKSRITISVDTSKNQFFLKLSSVTAADTATYYCARSTLITKGFFDYWGQGTLLTVSS VL: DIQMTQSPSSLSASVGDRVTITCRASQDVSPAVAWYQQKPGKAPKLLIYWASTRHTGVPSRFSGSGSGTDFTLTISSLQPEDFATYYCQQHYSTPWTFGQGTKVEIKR" numeric_readout=0.00051
binder="29A8_VH2-VL1.M1 (antibody, human IgG1, kappa, N297A, V domains shown, Humanized, hIgG1 effector-less Fc, kappa; see recheck on K24R in the .M1 light chain) VH: EVQLQESGPGLVKPSETLSLTCTVSGYSITSDFAWDWIRQFPGKGLEWMGHIRFSGTTSYNPSLKSRITISVDTSKNQFSLKLSSVTAADTAVYYCARSTLITKGFFDYWGQGTLVTVSS VL: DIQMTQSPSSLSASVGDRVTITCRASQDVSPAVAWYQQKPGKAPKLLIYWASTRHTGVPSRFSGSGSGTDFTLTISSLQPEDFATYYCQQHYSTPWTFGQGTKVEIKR" numeric_readout=0.00061
binder="29A8_VH5-VL1.M1 (antibody, human IgG1, kappa, N297A, V domains shown, Humanized, hIgG1 effector-less Fc, kappa; see recheck on K24R in the .M1 light chain) VH: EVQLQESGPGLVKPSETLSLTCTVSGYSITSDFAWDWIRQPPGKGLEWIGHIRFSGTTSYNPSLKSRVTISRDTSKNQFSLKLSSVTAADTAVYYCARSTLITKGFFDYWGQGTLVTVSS VL: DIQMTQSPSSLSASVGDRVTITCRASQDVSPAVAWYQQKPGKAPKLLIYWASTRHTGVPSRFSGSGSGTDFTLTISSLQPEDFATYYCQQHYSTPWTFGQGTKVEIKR" numeric_readout=0.00042

Please find the next binder below.
Could you share which koff value was measured for 29A8_chimeric (antibody, human IgG1, kappa, N297A, V domains shown, Human IgG1 with effector-less Fc mutations, human kappa; also called chimeric 29A8H8C7) VH: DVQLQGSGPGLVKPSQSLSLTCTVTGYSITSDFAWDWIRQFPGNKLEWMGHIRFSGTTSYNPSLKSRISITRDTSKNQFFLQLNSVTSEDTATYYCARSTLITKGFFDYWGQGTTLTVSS VL: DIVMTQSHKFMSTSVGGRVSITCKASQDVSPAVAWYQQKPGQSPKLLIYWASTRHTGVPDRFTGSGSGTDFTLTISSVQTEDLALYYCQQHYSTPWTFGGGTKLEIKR ?
0.00015

Each recorded value in this set is attributed to patent US20220135687A1.
